Numbers sourced from patent US9125913B2.

Tested on: GST-Bcl-2
Test: TR-FRET binding assay, Bcl-2
Conditions: TR-FRET Ki values
List of Binding selectivity ratio (Bcl-XL Ki/Bcl-2 Ki) values.
Output: the number by itself.

{"SMILES NOTATION": "CN(C)CCCNc1ccc(S(=O)(=O)NC(=O)c2ccc(N3CCN(Cc4ccccc4-c4ccc(Cl)cc4)CC3)cc2Oc2ccccc2)cc1C#N", "ASSAY VALUE": 133}
{"SMILES NOTATION": "CC1(C)CCC(CN2CCN(c3ccc(C(=O)NS(=O)(=O)c4ccc(NCC5CCC(F)(F)CC5)c([N+](=O)[O-])c4)c(Oc4cccc5[nH]cnc45)c3)CC2)=C(c2ccc(Cl)cc2)C1", "ASSAY VALUE": 53.991}
{"SMILES NOTATION": "O=C(NS(=O)(=O)c1ccc(NCCc2ccncc2)c([N+](=O)[O-])c1)c1ccc(N2CCN(Cc3ccccc3-c3ccc(Cl)cc3)CC2)cc1Oc1ccccc1", "ASSAY VALUE": 91.4}

# next compound below
Problem: Quick check: Binding selectivity ratio (Bcl-XL Ki/Bcl-2 Ki) on GST-Bcl-2, item CN(C)CCOc1ccc(-c2ccc(Cl)cc2)c(CN2CCN(c3ccc(C(=O)NS(=O)(=O)c4ccc(NCC5CCOCC5)c(S(=O)(=O)C(F)(F)F)c4)c(Oc4ccccc4)c3)CC2)c1 ?
Result: 224.8
